- Test Summary: Metabolic stability test in rat liver microsomes
- Assay type: in vitro ADME
- Conditions: 5 μg/mL, 0.5 mg/mL protein, 30 min incubation
- Protocol: 1) Metabolic Stability Test Diluted sample (final 5 μg/mL in 0.1 M potassium phosphate buffer, pH 7.4) was pre-incubated with cofactors (glucose-6-phosphate 3.3 mM, NADPH 1.3 mM, MgCl2 0.16 mM, glucose-6-phosphate dehydrogenase 0.4 U/mL final) and enzyme reaction was initiated with the addition of human intestinal (1 mg/mL protein) or rat liver microsomes (0.5 mg/mL protein). […]
Value Kind: Stability RLM (% metabolized in rat liver microsomes) (%)

Worked cases, answers included:
Molecule: C#Cc1cc(CNC(=O)/C=C/c2ccc(C(F)(F)F)nc2NC(C)C)cc(F)c1NS(C)(=O)=O
Unit Text: %
Test Result: 3.4
//
Molecule: COCCNc1nc(C(F)(F)F)ccc1/C=C/C(=O)NCc1ccc(NS(C)(=O)=O)c(F)c1
Unit Text: %
Test Result: 10

1: C#Cc1cc(CNC(=O)/C=C/c2ccc(C(F)(F)F)nc2OC)cc(F)c1NS(C)(=O)=O
2: CCCCNc1nc(C(F)(F)F)ccc1/C=C/C(=O)NCc1cc(C)c(NS(C)(=O)=O)c(F)c1
3: C=Cc1cc(CNC(=O)/C=C/c2ccc(C(F)(F)F)nc2N2CCOCC2)cc(F)c1NS(C)(=O)=O
Prompt: List from greatest to least Stability RLM (% metabolized in rat liver microsomes). Answer by listing the labels in the requested order.
Completion: 1, 2, 3
